tested on: SF-539; assay: Growth inhibition of human SF539 cells incubated for 48 hrs by sulforhodamine B assay; format: functional; conditions: SF-539, 48 h
readout_name: GI50 (nM)
One number for each entry, in nM.

Please state GI50 for every compound in the list that follows.
1. C=C1CC[C@@H]2[C@](C)(COC(C)=O)[C@H](OC(C)=O)CC[C@@]2(C)[C@H]1CC(Nc1ccc(S(=O)(=O)Nc2ncccn2)cc1)C1=CCOC1=O (stereo not given in full)
2. C=C1CC[C@@H]2[C@](C)(COC(C)=O)[C@H](OC(C)=O)CC[C@@]2(C)[C@H]1CC(Nc1ccc(S(=O)(=O)Nc2nccs2)cc1)C1=CCOC1=O (stereo not given in full)
3. C=C1CC[C@@H]2[C@](C)(COC(C)=O)[C@H](OC(C)=O)CC[C@@]2(C)[C@H]1CC(Nc1ccc(S(=O)(=O)Nc2ccc(Cl)nn2)cc1)C1=CCOC1=O (stereo not given in full)
4. C=C1CC[C@@H]2[C@](C)(COC(C)=O)[C@H](OC(C)=O)CC[C@@]2(C)[C@H]1CC(Nc1ccc(S(=O)(=O)Nc2cc(C)on2)cc1)C1=CCOC1=O (stereo not given in full)
5. C=C1CC[C@@H]2[C@](C)(COC(C)=O)[C@H](OC(C)=O)CC[C@@]2(C)[C@H]1CC(Nc1ccc(S(=O)(=O)Nc2nccc(C)n2)cc1)C1=CCOC1=O (stereo not given in full)

1: 1500; 2: 2350; 3: 1230; 4: 1590; 5: 2070

* * *

system: SK-MEL-2; assay: Anticancer activity against human SK-MEL-2 cells assessed as cell growth at 10 uM after 48 hrs by sulforhodamine B assay relative to control; assay type: functional; settings: SK-MEL-2, 48 h, read-out: Activity
readout_name: growth at 10 µM (%)
Give bare numbers, in %.

Worked cases, growth at 10 µM given:
# compound, assayed_target, growth at 10 µM [%]
records = [
    ("C=C1CC[C@@H]2[C@](C)(COC(C)=O)[C@H](OC(C)=O)CC[C@@]2(C)[C@H]1CC(Nc1ccc(S(=O)(=O)Nc2cc(C)on2)cc1)C1=CCOC1=O (stereo partly specified)", "SK-MEL-2", 63),
    ("C=C1CC[C@@H]2[C@](C)(COC(C)=O)[C@H](OC(C)=O)CC[C@@]2(C)[C@H]1CC(Nc1ccc(S(=O)(=O)Nc2ccc(Cl)nn2)cc1)C1=CCOC1=O (stereo partly specified)", "SK-MEL-2", 58.3),
    ("C=C1CC[C@@H]2[C@](C)(COC(C)=O)[C@H](OC(C)=O)CC[C@@]2(C)[C@H]1CC(Nc1ccc(S(=O)(=O)Nc2ncccn2)cc1)C1=CCOC1=O (stereo partly specified)", "SK-MEL-2", 41.9),
    ("C=C1CC[C@@H]2[C@](C)(COC(C)=O)[C@H](OC(C)=O)CC[C@@]2(C)[C@H]1CC(Nc1ccc(S(=O)(=O)Nc2nccc(C)n2)cc1)C1=CCOC1=O (stereo partly specified)", "SK-MEL-2", 40.1),
    ("C=C1CC[C@@H]2[C@](C)(COC(C)=O)[C@H](OC(C)=O)CC[C@@]2(C)[C@H]1CC(Nc1ccc(S(=O)(=O)Nc2nc(C)cc(C)n2)cc1)C1=CCOC1=O (stereo partly specified)", "SK-MEL-2", 88.5),
]

Report growth at 10 µM for C=C1CC[C@@H]2[C@](C)(COC(C)=O)[C@H](OC(C)=O)CC[C@@]2(C)[C@H]1CC(Nc1ccc(S(=O)(=O)Nc2nccs2)cc1)C1=CCOC1=O (stereo partly specified) please.
28.4

* * *

test system: HOP-62; assay: Growth inhibition of human HOP62 cells incubated for 48 hrs by sulforhodamine B assay; type: functional; conditions: HOP-62, 48 h
readout_name: GI50 (µM)
Give bare numbers, in µM.

Worked cases, GI50 given:
# compound, GI50 / µM
data = [
    ("C=C1CC[C@@H]2[C@](C)(COC(C)=O)[C@H](OC(C)=O)CC[C@@]2(C)[C@H]1CC(Nc1ccc(S(=O)(=O)Nc2ccc(Cl)nn2)cc1)C1=CCOC1=O (stereo not given in full)", 1.46),
    ("C=C1CC[C@@H]2[C@](C)(COC(C)=O)[C@H](OC(C)=O)CC[C@@]2(C)[C@H]1CC(Nc1ccc(S(=O)(=O)Nc2ncccn2)cc1)C1=CCOC1=O (stereo not given in full)", 3.02),
]

Please state GI50 for every compound in the list that follows.
1. C=C1CC[C@@H]2[C@](C)(COC(C)=O)[C@H](OC(C)=O)CC[C@@]2(C)[C@H]1CC(Nc1ccc(S(=O)(=O)Nc2cc(C)on2)cc1)C1=CCOC1=O (stereo not given in full)
2. C=C1CC[C@@H]2[C@](C)(COC(C)=O)[C@H](OC(C)=O)CC[C@@]2(C)[C@H]1CC(Nc1ccc(S(=O)(=O)Nc2nccc(C)n2)cc1)C1=CCOC1=O (stereo not given in full)
3. C=C1CC[C@@H]2[C@](C)(COC(C)=O)[C@H](OC(C)=O)CC[C@@]2(C)[C@H]1CC(Nc1ccc(S(=O)(=O)Nc2nccs2)cc1)C1=CCOC1=O (stereo not given in full)

1: 8.88; 2: 10.3; 3: 13.8

* * *

tested on: U-251; test: Anticancer activity against human U251 cells assessed as cell growth at 10 uM after 48 hrs by sulforhodamine B assay relative to control; format: functional; settings: U-251, 48 h, read-out: Activity
I'd be grateful if you could share measured growth at 10 µM for these entries.
Numbers only, in %.

# compound, unit_symbol, growth at 10 µM
data = [
    ("C=C1CC[C@@H]2[C@](C)(COC(C)=O)[C@H](OC(C)=O)CC[C@@]2(C)[C@H]1CC(Nc1ccc(S(=O)(=O)Nc2nc(C)cc(C)n2)cc1)C1=CCOC1=O (stereo partly drawn)", "%", 48.2),
    ("C=C1CC[C@@H]2[C@](C)(COC(C)=O)[C@H](OC(C)=O)CC[C@@]2(C)[C@H]1CC(Nc1ccc(S(=O)(=O)Nc2ncccn2)cc1)C1=CCOC1=O (stereo partly drawn)", "%", -19),
]

Moving on to another compound below.
Kindly state the measured growth at 10 µM obtained for C=C1CC[C@@H]2[C@](C)(COC(C)=O)[C@H](OC(C)=O)CC[C@@]2(C)[C@H]1CC(Nc1ccc(S(=O)(=O)Nc2nccs2)cc1)C1=CCOC1=O (stereo partly drawn) with U-251.
4.21

* * *

tested on: RXF 393; assay: Anticancer activity against human RXF393 cells assessed as cell growth at 10 uM after 48 hrs by sulforhodamine B assay relative to control; assay type: functional; conditions: RXF 393, 48 h, read-out: Activity
readout_name: growth at 10 µM (%)
Numbers only, in %.

# compound, growth at 10 µM [%]
rows = [
    ("C=C1CC[C@@H]2[C@](C)(COC(C)=O)[C@H](OC(C)=O)CC[C@@]2(C)[C@H]1CC(Nc1ccc(S(=O)(=O)Nc2nc(C)cc(C)n2)cc1)C1=CCOC1=O (stereo partly drawn)", 85.1),
]

Please state growth at 10 µM for every compound in the list that follows.
1. C=C1CC[C@@H]2[C@](C)(COC(C)=O)[C@H](OC(C)=O)CC[C@@]2(C)[C@H]1CC(Nc1ccc(S(=O)(=O)Nc2ncccn2)cc1)C1=CCOC1=O (stereo partly drawn)
2. C=C1CC[C@@H]2[C@](C)(COC(C)=O)[C@H](OC(C)=O)CC[C@@]2(C)[C@H]1CC(Nc1ccc(S(=O)(=O)Nc2nccc(C)n2)cc1)C1=CCOC1=O (stereo partly drawn)

1. -70
2. -38.3

* * *

I'd be grateful if you could share measured GI50 for these entries.
test system: SK-MEL-2; test: Growth inhibition of human SK-MEL-2 cells incubated for 48 hrs by sulforhodamine B assay; assay type: functional; details: SK-MEL-2, 48 h
Numbers only, in nM.

# compound, GI50, nM
data = [
    ("C=C1CC[C@@H]2[C@](C)(COC(C)=O)[C@H](OC(C)=O)CC[C@@]2(C)[C@H]1CC(Nc1ccc(S(=O)(=O)Nc2ccc(Cl)nn2)cc1)C1=CCOC1=O (stereo not given in full)", 1770),
    ("C=C1CC[C@@H]2[C@](C)(COC(C)=O)[C@H](OC(C)=O)CC[C@@]2(C)[C@H]1CC(Nc1ccc(S(=O)(=O)Nc2cc(C)on2)cc1)C1=CCOC1=O (stereo not given in full)", 2040),
    ("C=C1CC[C@@H]2[C@](C)(COC(C)=O)[C@H](OC(C)=O)CC[C@@]2(C)[C@H]1CC(Nc1ccc(S(=O)(=O)Nc2nccs2)cc1)C1=CCOC1=O (stereo not given in full)", 10600),
    ("C=C1CC[C@@H]2[C@](C)(COC(C)=O)[C@H](OC(C)=O)CC[C@@]2(C)[C@H]1CC(Nc1ccc(S(=O)(=O)Nc2ncccn2)cc1)C1=CCOC1=O (stereo not given in full)", 2360),
]

Moving on to another compound below.
Report GI50 for C=C1CC[C@@H]2[C@](C)(COC(C)=O)[C@H](OC(C)=O)CC[C@@]2(C)[C@H]1CC(Nc1ccc(S(=O)(=O)Nc2nccc(C)n2)cc1)C1=CCOC1=O (stereo not given in full) please.
6010
